Below, each entry is listed with its recorded pKd.
Target: T1, TGFβ2 (R&D Systems)
T1 sequence (P61812 303-414, species assumed, looked up): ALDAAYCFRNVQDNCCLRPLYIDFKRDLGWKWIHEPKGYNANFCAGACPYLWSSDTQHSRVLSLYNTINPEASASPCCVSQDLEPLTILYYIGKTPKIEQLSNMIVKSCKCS
Assay: SPR (Biacore T200), TGFβ amine-coupled to chip, 1:1 fit
# reply with the number alone; pKd is -log10 of concentration in mol/L

| Binder | Measured result |
| --- | --- |
| Caninized anti-TGFβ1,2,3 antibody VH4.5 - VL1 (antibody, V domains shown) VH: EVQLVESGGDLVKPAGSLRLSCVASGYTFSSNVMSWVRQAPGKGLQWVGYVIPIVDIANYADAVKGRFTISRDNAKNTLYLQMNSLRVEDTAVYYCTRTLGLVLDAMDYWGQGTLVTVSS VL: ETVLTQSPGTLSLSPGERATLSCRASQSLGSSYLAWYQQKPGQAPRLLIYGASSRAPGIPDRFSGSGSGTDFTLTISRLEPEDFAVYYCQQYADSPITFGQGTRLEIKR | 8.81 |

Return reported pKd; argument: Felinized anti-TGFβ1,2,3 antibody VH2.2 - VL7 (antibody, V domains shown) VH: QVLLVQSGADVRKPGASVKIFCKASGYTFSSNVMHWVRQTPAQGFEWMGSVIPIVDIATYARRFQGRLVLTADTSTNTAYMELRSLKSADTAVYYCARTLGLVLDAMDYWGQGSLVTVSS VL: DIVLTQPPSLSVNLGQTARITCRASQSLGSSYLAWYQQKPGQAPKLVTYGASSRAPGIPDRFSGTNSGITATLTISGARAEDEADYYCQQYADSPITFGQGTKLEIKR
8.67

Return reported pKd; argument: Caninized anti-TGFβ1,2,3 antibody VH4.11 - VL2 (antibody, V domains shown) VH: QVQLVQSGAEVKKPGSSVKVSCKASGYTFSSNVISWVRQAPGKGLQWVGGVIPIVDIANYAQRFKGRVTLTADTSTNTVYMELSNLRTEDTAVYYCARTLGLVLDAMDYWGQGTLVTVSS VL: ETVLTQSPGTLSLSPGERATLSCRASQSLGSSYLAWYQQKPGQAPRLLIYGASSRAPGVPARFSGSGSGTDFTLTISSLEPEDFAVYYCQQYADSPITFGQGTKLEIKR
8.42

Return reported pKd; argument: Caninized anti-TGFβ1,2,3 antibody VH4.11 - VL3 (antibody, V domains shown) VH: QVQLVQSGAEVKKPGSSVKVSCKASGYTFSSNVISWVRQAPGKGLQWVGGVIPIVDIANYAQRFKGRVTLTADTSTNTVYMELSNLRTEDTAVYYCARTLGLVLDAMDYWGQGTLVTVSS VL: EIVMTQSPASLSLSQEEKVTITCRASQSLGSSYLAWYQQKPGQAPKLLIYGASSRAPGVPSRFSGSGSGTDFSFTISSLEPEDVAVYYCQQYADSPITFGQGTKLEIKR
8.29

Return reported pKd; argument: Felinized anti-TGFβ1,2,3 antibody VH2.8 - VL6 (antibody, V domains shown) VH: QVQLVQSGAEVKKPGSSVKVSCKASGYTFSSNVISWVRQTPAQGFEWMGGVIPIVDIANYAQRFKGRLVLTADTSTNTAYMELRSLKSADTAVYYCASTLGLVLDAMDYWGQGTLVTVSS VL: QSVLTQPPSVSGSLGQRVTISCRASQSLGSSYLAWYQQVPGRAPRLLIYGASSRAPGIPDRFSGSKSGTSGSLTITGLEADDEADYYCQQYADSPITFGGGTHLTVLG
8.76
